# Method: protein stability index of a GFP-peptide fusion (yeast GPS) (PSI 1-4); higher = more stable; sorted into four equal gates, so the index is relative within each strain
# Condition Set: pdr5∆
Reported Endpoint: protein stability index
Just the number.

Looking up LSSDDLLGKESFKKIIK [YCS4] , I see its protein stability index listed as 3.08

Consider GNRYLEKRLNLRVEHIK [RPL21A] . Its measured protein stability index is 2.96

Lab note: measured protein stability index of QIPTVSSPLGFEETKLS [SIR4] was 3.05

Reported protein stability index ( LSGNPLTSVTNDICSVE [SIR4] ) = 2.95

Form: sequence = VRLRSNVIKTGIRIISL [RPN3] ; protein stability index = 2.35

Note to self: protein stability index recorded for DISAMQPVNPKPFLKGL [SMX3] was 3.18

Form field protein stability index, entry TNAAFPFHDPEARLFNI [ECM29] : 2.87

Item: NFKGLAKEKERMLEEAI [YIL149C/MLP2] | protein stability index: 3.56

Just so you know, measured protein stability index for NLKQANNVAYGKKRFRV [SMC4] came out at 2.62

The recorded protein stability index for NVTETYSVYLIHEIRLN [SIR3] is 1.98

Item: KKQKLIEEQDKKVQALQ [ITC1] | protein stability index: 2.6

For record GNYIKTENATENDQQDN [LIN1] the listed protein stability index is 2.62

Reported protein stability index of IQVFEKPFLKKTQEYYT [CDC53] : 2.33

What the record says about LLFINSSKLVDVYTLPS [YML103C/NUP188] : protein stability index is 2

get_value(item= EQQVKEAEMAYVKAVSD [SMC4] , readout=protein stability index) returns 2.89

protein stability index reading for SPQQFLRAHTDDSRNPD [PRE2] : 3.03

Value of measured protein stability index for the entry EELRKHAQKRVSNASAR [SKI6] : 3.22

Briefly, protein stability index measured for KLLDDNPTEFDWPTYVD [SRB8] : 3.29

Per the record, EDDESLGHKELKVRKGH [RPB2] has protein stability index of 2.54

Lab note: measured protein stability index of VLGFLQLFHNLISIHSR [YJL039C/NUP192] was 2.89

What the record says about WCAGAGTAADTEAVTQL [PUP1] : protein stability index is 2.94

FAGVASMNVTLGVPRIK [RPO31] yielded protein stability index of 2.78

// protein stability index lookup, sequence = ATESIKNRRRIHGELKT [SMC1] , result: 3.09

For this sequence ( TSILELGQLYVTMGAKD [RPN6] ), measured protein stability index is 2.85

Per the record, LGPRGVSITPGKIEKIA [SRP21] has protein stability index of 2.62

The sequence LQPVIPGGAASKSVPTP [SNF5] showed protein stability index equal to 3.28

The value of protein stability index measured for the sequence GIKKHSLWRRTVYSLSQ [YDL116W/NUP84] turned out to be 1.29

Entry ESVPTPANAEPQAVTIT [ITC1] ; protein stability index = 2.92

Memo: ELEDVAVKKLYAIIINY [YCS4] , reported protein stability index: 1.97

The sequence identified as PLAKKQTVRLIKDLQRA [SIR2] registered its protein stability index at 3.01

Entry RRLPEDESYARAYRIIR [QCR7] — recorded protein stability index = 2.72

Reported protein stability index ( PQKSSSKGFVFNSVQKK [YAR002W/NUP60] ) = 1.4

protein stability index measured on LLTPKSGEPIIAATQDF [RPO31] = 2.57

protein stability index recorded for this sequence, RNQEKKMEKKKSSSLSL [SNM1] , is 3.5

* * *

# Method: protein stability index of a GFP-peptide fusion (yeast GPS) (PSI 1-4); higher = more stable; sorted into four equal gates, so the index is relative within each strain
# Condition Set: san1∆
Reported Endpoint: protein stability index
Write the number on its own, no unit after it.

So for YISFIKDDRFVPVRKFK [RPN2] , the logged protein stability index turned out to be 2.96

// sample EKKDSGSSKPAFSFGAK [YJL041W/NSP1] , its protein stability index was 3.08

Value of measured protein stability index for the entry TVNGQARDLATMTYEEV [FAS1] : 3.03

According to the records, this sequence ILCGIQEYLNPVIDTQI [YDL116W/NUP84] displays protein stability index of 2.01

The value of protein stability index measured for the sequence VGGQFSKVQFDAKTSYP [REC8] turned out to be 3

Recorded protein stability index (sequence SSFTFGSTTIEKKNDEN [YLR335W/NUP2] ): 3.08

# protein stability index (sequence: LHKRLHGVSFKKRAPRA [RPL31A] ) is 3

Short answer for QVLSQSADPSLLIDQFS [SWI1] : protein stability index was 3.02

Sample ASSSPSSTDFSTCIVSL [ECM29] ; protein stability index observed: 2.01

protein stability index reported for this sequence KLYTFLARRTDAPFNKV [RPL18A] : 1.97

* * *

# Method: protein stability index of a GFP-peptide fusion (yeast GPS) (PSI 1-4); higher = more stable; sorted into four equal gates, so the index is relative within each strain
# Condition Set: ubr1∆
Could you label it yes if measured protein stability index is 3 or higher, and no otherwise?

In plain terms: is recorded protein stability index at least 3 for LFSPEEVRAISVAKIRF [RPO21] ?
no

Form field: protein stability index at least 3? Entry: EDILYYSTCPSETDLND [SRB8]
no

Has EMKNIRGPYLVIVPLST [SNF2] a recorded protein stability index greater than or equal to 3?
no

Has ADGPTMREITETIAEAK [RPO21] a recorded protein stability index greater than or equal to 3?
yes

Would you say STPGGGSVFNMNGNTNA [YOR098C/NUP1] shows protein stability index at minimum 3?
yes

Kindly determine if protein stability index recorded for LYSVKFAPAHLGLKLAC [YGL100W/SEH1] is above or exactly 3.
no

protein stability index >= 3 for SMTATADVLAMAKVEVN [RIP1] ?
no

Could you tell me if the measured protein stability index of GSEVRLRDDTLPKAWIS [COR1] reaches 3 or more?
no

Identify whether the reported protein stability index of the following sequence is 3 or greater: DQFHRDTISAITHQLNN [RPC25]
no

I'd appreciate it if you could say whether ILEEKTDLHLPKKEYDD [NSL1] has protein stability index at least equal to 3.
no

Is protein stability index for ADDEKSDEEEVTEMSNN [BRR2] at or above 3?
yes

Assess whether reported protein stability index for DTYRTLMEEIESLKKEL [YIL149C/MLP2] sits at 3 or higher.
yes

Reported protein stability index reaches at least 3 for SSSPLAMSETLSKVSLL [PRE8] ?
no

Textbook exercise: given the entry YEDEELSRAEYDSDSDS [LIN1] , state whether its protein stability index is greater than or equal to 3.
yes

Can SKSAFSFGTANTNGTNA [YOR098C/NUP1] be said to have protein stability index at or above 3?
no

Confirm if protein stability index reported for the sequence RLSNEMHALKNRSEQNG [RGR1] is 3 or above.
no

Check the entry LERTDLKSKVIDSPELL [RPN7] : does protein stability index equal or exceed 3?
yes

Decide: protein stability index of NLPILKNHFRKHWQERV [RPL13A] >= 3?
no

Exam item: decide whether the reported protein stability index for AQKRVVSYMMPSLYRLL [SRB8] is at least 3.
no

* * *

# Method: protein stability index of a GFP-peptide fusion (yeast GPS) (PSI 1-4); higher = more stable; sorted into four equal gates, so the index is relative within each strain
# Condition Set: san1∆
Give protein stability index for every item shown.

get_value(item= PNLNMKYRKRQLVTREA [FAS2] , readout=protein stability index) returns 3

Documented protein stability index of EVTKEEDIIANYASVYP [RRP43] : 3.06

According to the records, this sequence LIVRAKNHTHNLPGNIT [RRP4] displays protein stability index of 2.89

// AGTTDNSFIKANLPWLG [RPN2] : protein stability index value = 1.39

Entry TSADLKSKAEELTQVPS [UBP6] , protein stability index reported as 2.79

Short answer for IIGPNGSGKSNMMDAIS [SMC1] : protein stability index was 3.03

protein stability index recorded for this sequence, TKAIQGCSKICDLSSKF [YCS4] , is 3.37

get_value(item= SESKDSDKPSLPSAVDG [YLR335W/NUP2] , readout=protein stability index) returns 3.28

The sequence identified as GVDAMSVDDLKKLNKNK [RPL1A] registered its protein stability index at 3.25

protein stability index reported for this sequence HSNESSNETIGEIQLLF [IRR1] : 3.27

// protein stability index value for KELKEKEAAESPEEADV [PUP2] : 3.02

Please fill in: protein stability index reported for NVTETYSVYLIHEIRLN [SIR3] = 2.42

Quick note, protein stability index for TELSNKETTIEKLSSEI [YIL149C/MLP2] landed at 3.21

// field: protein stability index; key: DTYRTLMEEIESLKKEL [YIL149C/MLP2] ; value = 3.4

The reported protein stability index of the sequence LQLAPGAHLGRFVIWTE [RPL4A] was 3.18

Value of measured protein stability index for the entry VSLGTSIMAVTFKDGVI [PRE3] : 3.27

Entry LLRYGGAFTIALAYAGT [RPN2] , protein stability index reported as 1.91

sequence KRINKFLDSVHKQGSSY [POP7] , protein stability index observed: 2.65

# sequence IVVQLNGRLNKCGVISP [RPS22A] ; its protein stability index = 2.98

Just so you know, measured protein stability index for IFQAKRNSNPENTVGLI [RPN10] came out at 2.92

Data point: YALQSVKLPRAFIDERA [RRP43] ; protein stability index = 1.3

// protein stability index value for GIDQYSFNVKENQPFHG [AAR2] : 2.82

Recorded result, DTFLPPPPPPPSNFEIN [PRP8] , protein stability index: 2.34

GET /value?item= RRRSSTNKSKRPSITEA [MED1] &field=protein stability index returns 2.87

Per the records, this sequence ( IADSTHVKRITKIAQSQ [ECM29] ) has protein stability index equal to 1.3

Measured protein stability index of LRPLFTRYELYIKNILE [YLR335W/NUP2] : 1.8

Consider INDAGKAKKLIQSLPPT [RPL38] . Its measured protein stability index is 1.96

get_value(item= KTKAMSLSIEENIPVAL [POP1] , readout=protein stability index) returns 3.22

Recorded result, INDIRDDDIEKQEQEEK [YCG1] , protein stability index: 2.94

Consider GDEGYNEDMVRRANFYK [SNF12] . Its measured protein stability index is 3.44

For reference, reported protein stability index for NIKLLNNRMGSYDCTGV [POP1] stands at 2.83

protein stability index in this record for YDSRPLEEDSKKVNGTS [PRP8] : 3.21

The recorded protein stability index for VLLDARDIEKITSLYAL [CDC53] is 1.72

Sure, the documented protein stability index for TNKLLFKRVSQTFEAKL [NUT1] is 1.74

Reported protein stability index ( IEDRDFLVRYACEPTAE [SIR3] ) = 2.53

The sequence listed as QQQLVNQMKVAPIPKQL [GAL11] has a reported protein stability index of 2.97

// protein stability index value for LKKGEQKTQELNAKYQS [ISW2] : 3.29

Summary for this sequence, AYHQKYVDEQSKNELKK [RPS16A] : protein stability index is 2.02

// protein stability index lookup, sequence = SMRVKPSASLKLHHDLK [YMR129W/POM152] , result: 2.95

Please fill in: protein stability index reported for ILTSKVNAIKNEVKEWA [DSN1] = 3.07

Lookup result for ILSSVNRTVLLKIFKIF [SRB8] ; measured protein stability index: 1.17

Given item TSDNLLTITKAAGANVD [RPP1B] , the value recorded as its protein stability index is 3.05

Measured protein stability index of KIINTHSDMASKMYNTD [PRP8] : 2.77

Measured protein stability index of YGYWFDCRMGNFYIQYD [AAR2] : 1.93

The sequence listed as KKNPNWLEEYHPKLIKN [FAS1] has a reported protein stability index of 1.97

So, QQVVCIFSYGPHIQKML [POP6] ? Its protein stability index was 1.74
